B1: mRNA-splicing (parent)
chain: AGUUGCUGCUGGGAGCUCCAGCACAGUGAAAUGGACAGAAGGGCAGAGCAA

Variants of: B1
PROCEDURE TEXT: exon inclusion enrichment index; higher = more inclusion; WT1 exon 5 minigene, HEK293
ASSAY ENDPOINT: exon inclusion enrichment index
Give bare numbers.

Some solved entries appear below for comparison.
G5C C6G U7C U10C A30C A31U: 3.41
C6A U7A C9A U10A A20C G21C: 0.209
G5A C6U U7A G8A C9A: 0.0655

Return reported exon inclusion enrichment index values for all items listed beneath this line.
1. C6A U7A C9A U10A A37G G38C
2. G28U A29G
3. C6A U7A C9A U10A A39U
4. G5C C6A U7C G8A U10A G21U C22A

1. 0.984
2. 0.0875
3. 0.0237
4. 0.0315

Return reported exon inclusion enrichment index values for all items listed beneath this line.
1. C6A U7A G8A C9U U10A
2. U4A G5A C6G U7G C9A
3. G5A C6G U7G C9A U32C G33A
4. G5A C6U U7A G8U C9A A14C G15A
5. G5A C6G C9A
6. G5C C6G U7C G11U
7. G5C C6A U7C G8A U10A G28C A29U
8. G5C C6U G8C C9U U10C A45C

1: 0.0156; 2: 0.0163; 3: 0.00102; 4: 0.00652; 5: 0.036; 6: 2.67; 7: 0.0485; 8: 2.06
